self-cleavage by entry:
B1: LINE1-full (parent)
chain: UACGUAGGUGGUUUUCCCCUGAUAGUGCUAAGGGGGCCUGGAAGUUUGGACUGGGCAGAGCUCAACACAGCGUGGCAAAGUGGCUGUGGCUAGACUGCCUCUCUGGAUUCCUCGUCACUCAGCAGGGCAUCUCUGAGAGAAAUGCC

# Variants of: B1
# Measurement notes: self-cleavage, relative activity (ratio to wild type); higher = more cleavage; in vitro, sequencing; the parent is a self-cleaving ribozyme
Assay endpoint: self-cleavage

changes="G106U A141G" assay_endpoint=self-cleavage reported_measurement=0.83
changes="A6G A136G" assay_endpoint=self-cleavage reported_measurement=1.17
changes="U20A A140U" assay_endpoint=self-cleavage reported_measurement=1.7
changes="A43G A64U" assay_endpoint=self-cleavage reported_measurement=0.4
changes="G21U C131U" assay_endpoint=self-cleavage reported_measurement=1.41
changes="A59G G60C" assay_endpoint=self-cleavage reported_measurement=0.07
changes=A57C assay_endpoint=self-cleavage reported_measurement=0.08
changes="G89C A140U" assay_endpoint=self-cleavage reported_measurement=0.05
changes="U20C U130C" assay_endpoint=self-cleavage reported_measurement=1.77
changes="G32A U46C" assay_endpoint=self-cleavage reported_measurement=1.19
changes="U73G U108A" assay_endpoint=self-cleavage reported_measurement=1.33
changes="U23C U109A" assay_endpoint=self-cleavage reported_measurement=1.49
changes="U46C A69U" assay_endpoint=self-cleavage reported_measurement=0.07
changes="U62A U91C" assay_endpoint=self-cleavage reported_measurement=0.04
changes="A42G G114A" assay_endpoint=self-cleavage reported_measurement=1.48
changes="A57G G75A" assay_endpoint=self-cleavage reported_measurement=0.73
changes="U87C C146U" assay_endpoint=self-cleavage reported_measurement=0.34
changes="C84U A121G" assay_endpoint=self-cleavage reported_measurement=0.2
changes="U29G U96C" assay_endpoint=self-cleavage reported_measurement=0.67
changes="G32A A57G" assay_endpoint=self-cleavage reported_measurement=1.37
changes="U47A G82A" assay_endpoint=self-cleavage reported_measurement=2.27
changes="C120U A141G" assay_endpoint=self-cleavage reported_measurement=1.32
changes="A67G U109C" assay_endpoint=self-cleavage reported_measurement=0.16
changes="C19U A59G" assay_endpoint=self-cleavage reported_measurement=0.03
changes="A94G C95A" assay_endpoint=self-cleavage reported_measurement=0.07
changes="G25C C98G" assay_endpoint=self-cleavage reported_measurement=0.25
changes="U13G A121G" assay_endpoint=self-cleavage reported_measurement=1.1
changes="G97A U112A" assay_endpoint=self-cleavage reported_measurement=0.16
changes="G7U U87C" assay_endpoint=self-cleavage reported_measurement=0.18
changes="U14C U73A" assay_endpoint=self-cleavage reported_measurement=1.31
changes="A2C U62C" assay_endpoint=self-cleavage reported_measurement=0.11
changes="A50U U109A" assay_endpoint=self-cleavage reported_measurement=0.78
changes="A107G U143A" assay_endpoint=self-cleavage reported_measurement=1.51
changes="U87A A117U" assay_endpoint=self-cleavage reported_measurement=0.04
changes="U39G U73A" assay_endpoint=self-cleavage reported_measurement=1.88
changes="C101A U132C" assay_endpoint=self-cleavage reported_measurement=1.39
changes="U112C C145A" assay_endpoint=self-cleavage reported_measurement=1.39
changes="A57G U62C" assay_endpoint=self-cleavage reported_measurement=0.08
changes="U104C A140G" assay_endpoint=self-cleavage reported_measurement=1.67
changes="G8A G86A" assay_endpoint=self-cleavage reported_measurement=0.09
changes="A78G U134C" assay_endpoint=self-cleavage reported_measurement=1.49
changes=G80U assay_endpoint=self-cleavage reported_measurement=1.36
